All figures here come from patent US7618990B2.

- System: progesterone receptor (PR) (Homo sapiens)
- Construct: in live, intact (whole) cells using the human breast carcinoma T47D cell line; endogenous in cells
- Assay text: Progesterone receptor whole cell competition binding assay using T47D cells
- Setup conditions: intact T47D cells, 3 nM 3H-progesterone, 3 h at 37° C.
- Description: (2) Progesterone Receptor Whole Cell Competition Binding Assay Using T47D Cells PURPOSE: To evaluate the progesterone receptor (PR) binding activity of progestins or antiprogestins in live, intact (whole) cells using the human breast carcinoma T47D cell line and ^3H-progesterone as the labeled ligand. […] Following incubation, media was carefully removed and cells were washed 3× with 200 μL 5% RC each wash. […] Plates were read on the Wallac Microbeta® 1450 plate reader. […]

[
  {
    "Compound": "CC1CN(c2nc(-c3ccc(C#N)cc3)cs2)C(=O)O1 (stereo not drawn) [Example 41]",
    "System": "progesterone receptor (PR) (Homo sapiens)",
    "Endpoint unit": "nM",
    "Ki": 284
  },
  {
    "Compound": "CC[C@H]1COC(=O)N1c1nc(-c2ccc(C#N)cc2)cs1 [Example 8]",
    "System": "progesterone receptor (PR) (Homo sapiens)",
    "Endpoint unit": "nM",
    "Ki": 52.6
  },
  {
    "Compound": "CC(C)C[C@H]1COC(=O)N1c1nc(-c2ccc(Br)cc2)cs1 [Example 37]",
    "System": "progesterone receptor (PR) (Homo sapiens)",
    "Endpoint unit": "nM",
    "Ki": 566
  },
  {
    "Compound": "O=C1OCC(C(F)(F)F)N1c1nc(-c2ccc(Br)cc2)cs1 (stereo not drawn) [Example 64]",
    "System": "progesterone receptor (PR) (Homo sapiens)",
    "Endpoint unit": "nM",
    "Ki": 234
  },
  {
    "Compound": "CC1(C)COC(=O)N1c1nc(-c2ccc([N+](=O)[O-])cc2)cs1 [Example 80]",
    "System": "progesterone receptor (PR) (Homo sapiens)",
    "Endpoint unit": "nM",
    "Ki": 34.5
  },
  {
    "Compound": "C[C@@H]1COC(=O)N1c1nc(-c2ccc(Br)cc2)cs1 [Example 1]",
    "System": "progesterone receptor (PR) (Homo sapiens)",
    "Endpoint unit": "nM",
    "Ki": 87.6
  },
  {
    "Compound": "C[C@H]1COC(=O)N1c1nc(-c2ccc(Br)cc2)cs1 [Example 3]",
    "System": "progesterone receptor (PR) (Homo sapiens)",
    "Endpoint unit": "nM",
    "Ki": 55.3
  },
  {
    "Compound": "CC[C@H]1COC(=O)N1c1nc(-c2ccc(Br)cc2)cs1 [Example 7]",
    "System": "progesterone receptor (PR) (Homo sapiens)",
    "Endpoint unit": "nM",
    "Ki": 75.3
  },
  {
    "Compound": "CC1(C)COC(=O)N1c1nc(-c2ccc(C#N)cc2)c(F)s1 [Example 58]",
    "System": "progesterone receptor (PR) (Homo sapiens)",
    "Endpoint unit": "nM",
    "Ki": 16.1
  }
]

###

- System: progesterone receptor (PR) (Homo sapiens, UniProt P06401)
- Construct: in live, intact (whole) cells using the human breast carcinoma T47D cell line; endogenous in cells
- Assay text: Progesterone receptor whole cell competition binding assay using T47D cells
- Setup conditions: intact T47D cells, 3 nM 3H-progesterone, 3 h at 37° C.
pKi: −log10 of the molar value.
Assign Y whenever pKi does not fall below 7; assign N whenever it does.

[
  {
    "Compound": "O=C1OC[C@@H](c2ccccc2)N1c1nc(-c2ccc(Br)cc2)cs1 [Example 35]",
    "Assigned class": "N"
  },
  {
    "Compound": "CCCC1COC(=O)N1c1nc(-c2ccc(C#N)cc2)cs1 (centres unmarked) [Example 40]",
    "Assigned class": "Y"
  }
]
